Molecular target: Genome polyprotein (dengue virus type 2, UniProt P29990)
Sequence (P29990 1346-1475 limits assumed): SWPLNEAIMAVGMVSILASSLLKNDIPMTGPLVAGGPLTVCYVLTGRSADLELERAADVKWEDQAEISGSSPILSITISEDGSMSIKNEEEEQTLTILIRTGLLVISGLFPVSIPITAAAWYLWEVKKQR
Sequence (P29990 1476-2093 limits assumed): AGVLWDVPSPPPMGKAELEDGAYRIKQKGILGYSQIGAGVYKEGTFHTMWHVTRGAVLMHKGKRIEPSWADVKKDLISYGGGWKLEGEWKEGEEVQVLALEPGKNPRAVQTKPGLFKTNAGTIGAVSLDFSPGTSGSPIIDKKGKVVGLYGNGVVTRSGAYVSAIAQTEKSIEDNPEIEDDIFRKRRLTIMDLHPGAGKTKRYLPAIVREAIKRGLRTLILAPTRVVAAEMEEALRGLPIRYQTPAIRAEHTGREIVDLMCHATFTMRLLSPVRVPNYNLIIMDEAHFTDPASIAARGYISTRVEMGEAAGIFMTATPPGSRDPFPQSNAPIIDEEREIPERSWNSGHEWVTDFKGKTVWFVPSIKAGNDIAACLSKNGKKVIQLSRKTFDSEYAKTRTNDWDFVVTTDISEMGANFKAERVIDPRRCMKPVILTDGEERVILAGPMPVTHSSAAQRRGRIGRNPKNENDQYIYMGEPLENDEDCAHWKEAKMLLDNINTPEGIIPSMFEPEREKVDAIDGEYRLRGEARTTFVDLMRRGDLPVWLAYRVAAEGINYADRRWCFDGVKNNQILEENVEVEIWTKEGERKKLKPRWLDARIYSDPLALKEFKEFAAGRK
Where a SMILES comes first, the peptide text is derived from it. [ ]: non-standard residue; d: D form. The star is where a group is joined. Nle = CCCC[C@H](N)C(=O)O; Bz = O=C(c1ccccc1)*; CF3 = FC(F)(F)*
measure: pKi
Expect pKi as a plain number equal to -log10 of the molar concentration.

# example entries with known answers
compound	testTarget	pKi
CCCC[C@H](NC(=O)c1ccccc1)C(=O)N[C@@H](CCCCN)C(=O)N[C@@H](CCCNC(=N)N)C(=O)N[C@@H](CCCNC(=N)N)C(=O)c1nc2ccccc2o1	Genome polyprotein (dengue virus type 2, UniProt P29990)	4.08
CCCC[C@H](NC(=O)c1ccccc1)C(=O)N[C@@H](CCCCN)C(=O)N[C@@H](CCCN=C(N)N)C(=O)N[C@@H](CCCN=C(N)N)C(N)=O (Bz-[Nle]KRR-NH2)	Genome polyprotein (dengue virus type 2, UniProt P29990)	3.89
CCCC[C@H](NC(=O)c1ccccc1)C(=O)N[C@@H](CCCCN)C(=O)N[C@@H](CCCN=C(N)N)C(=O)N[C@@H](CCCN=C(N)N)B(O)O	Genome polyprotein (dengue virus type 2, UniProt P29990)	7.37
CCCC[C@H](NC(=O)c1ccccc1)C(=O)N[C@@H](CCCCN)C(=O)N[C@@H](CCCN=C(N)N)C(=O)N[C@@H](CCCN=C(N)N)C(O)C(=O)NCc1ccccc1 (stereo partly specified)	Genome polyprotein (dengue virus type 2, UniProt P29990)	3.75

For this compound ( CCCC[C@H](NC(=O)c1ccccc1)C(=O)N[C@@H](CCCCN)C(=O)N[C@@H](CCCN=C(N)N)C(=O)N[C@@H](CCCN=C(N)N)C(=O)C(F)(F)F (Bz-[Nle]KRR-CF3) ), measured pKi is 6.07

Reported pKi ( CCCC[C@H](NC(=O)c1ccccc1)C(=O)N[C@@H](CCCCN)C(=O)N[C@@H](CCCNC(=N)N)C(=O)N[C@@H](CCCNC(=N)N)C(=O)c1nccs1 ) = 4.37

----------
pKi: −log10 of the molar value. Where a SMILES comes first, the peptide text is derived from it. [ ]: non-standard residue; d: D form. The star is where a group is joined. Nle = CCCC[C@H](N)C(=O)O; Bz = O=C(c1ccccc1)*
Lab note: pKi readings collected with Genome polyprotein (dengue virus type 2, UniProt P29990) for the following compounds.

Example entries begin here.
> print(dat)
                                   compound  result
1  CCCC[C@H](NC(=O)c1ccccc1)C(=O)N[C@@H](CCCCN)C(=O)N[C@H](C(=O)N[C@H](C=O)CCCN=C(N)N)[C@@H](C)O (Bz-[Nle]KTR-aldehyde)  < 3.30
2  CCCC[C@H](NC(=O)c1ccccc1)C(=O)N[C@@H](CCCCN)C(=O)N[C@@H](CCCN=C(N)N)C(=O)N[C@@H](CCCN=C(N)N)C(=O)NS(=O)(=O)C(F)(F)F  < 3.30

The recorded pKi for CCCC[C@H](NC(=O)c1ccccc1)C(=O)N[C@@H](CCCCN)C(=O)N[C@@H](CCCN=C(N)N)C(=O)N[C@@H](CCCN=C(N)N)C(=O)O (Bz-[Nle]KRR-OH) is < 3.30

// sample CCCC[C@H](NC(=O)c1ccccc1)C(=O)N[C@@H](CCCCN)C(=O)N[C@H](C(=O)N[C@@H](CCCN=C(N)N)C(N)=O)[C@@H](C)O (Bz-[Nle]KTR-NH2) , its pKi was < 3.30

The value of pKi measured for the compound CCCC[C@H](NC(=O)c1ccccc1)C(=O)N[C@@H](CCCCN)C(=O)N[C@H](C(=O)N[C@@H](CCCN=C(N)N)C(=O)O)[C@@H](C)O (Bz-[Nle]KTR-OH) turned out to be < 3.30
